Values were extracted from the DeepSol protein solubility set.

test: soluble on expression in E. coli; label from the status in PepcDB or PDB records
measurement kind: soluble on expression in E. coli

Consider the reported soluble on expression in E. coli for these sequences:
MGSDKIHHHHHHMRYESSKKILVIEDDAVTRNLFLEVLEAQGFDTIGAEDGVAGIQKAQEHLPDLVICDIQMPDMDGYTVLARLRQDPHTAIIPFIFLTGSNTQTDVRKGMESGADDYLTKPSSIEDFLRAIAVRLEKQAFLRYWYATNSHQTAQSPPSSFNSESIFPSVPQLQAVFDFIEANYRQGITLSDVALAVGYSPAYLTNRVAKQTGETVNAWIVKRRMAAARPLLRDTNQTIDQIAIALGYQNTCHFSRQFRQHHGLSPKTWRKQQQLLQSSKNAKLQLIKNHDALEKLVPLGC; not soluble
MNESERKIVEEFQKETGINFKNEELLFRALCHSSYANEQNQAGRKDVESNEKLEFLGDAVLELFVCEILYKKYPEAEVGDLARVKSAAASEEVLAMVSRKMNLGKFLFLGKGEEKTGGRDRDSILADAFEALLAAIYLDQGYEKIKELFEQEFEFYIEKIMK; not soluble
MGSDKIHHHHHHMKDVQNEKDPRMVPLKKVGIKDLHWPLKVILKEDGYQSTVAQISCSVDLHREKRGIHMSRFIEVLNKLEVITPQIFEEILDDLIEIMEAKRAHLEIHFPYFIWKESPVSRKKSPLKVDCFVEAEKEKNFSFKIGVRTPVHTLCPCSKEISDYGAHNQRAFVEITVKTRKFIWFEDLVEIAEKNASSPLYTLLKRPDEKFVTEKAYENPRFVEDVARDVALELEKDPRITWYRVYVESMESIHNHNAFACVEKGDFVLEG; not soluble
GPGSMDTECLRARHSECIDLASVQLRRQLMDSGIPFTEAEIAALPARFVELLISRLEMFRQREVETRAAVDKCRRETEVEEMRFEQLREATERVQGEKRIISSKISAAVSEYMREDKLEKEKQRERHNELQEVFRQVEKKEAEHRREIIEMERLRKMLKKVTK; not soluble
MSIITRLFNNSDFEKLNQLCKLYDDLGYPTNENDLKKRLKKITNHDDYFLLLLIKENKIIGLSGMCKMMFYEKNAEYMRILAFVIHSEFRKKGYGKRLLADSEEFSKRLNCKAITLNSGNRNERLSAHKLYSDNGYVSNTSGFTKQL; soluble
MSLRVRTPSDDPVASAQIELIKQRINNIELFQNNRQAADSALRLEEGILSNAVNSLHRLREIQIQAGNPSLSEEDRKTLAVEAQALLNQLLDYANTKDSNGSYMFSGSKSLTQPVSLNLSGQYVYNGDSTQRFQAVTTSLLVAVNDTGDNVFMRIPSGNGRFAIRETLTPNTGTASVSSGSVTNEAAFVPDNYTMTFALNSQGNLVVMVSGTLSGNVIPPSGLPDDAPLYQEGSAIGFNGMEMVVSGLPKAGDSFSISPAKNESIFSTVQRMINNLNKPYTSSVEKAATQTENNQLLAQIDSALGHILSVQSDLGARLNQLETAEKANNDYLDISAATLKKLREIDPVAVATELNLQLVNLQAAQLSFTRIQGLSLFNFLEGHHHHHH; soluble

Next sequence, soluble on expression in E. coli to be filled in.
(Q) Recorded soluble on expression in E. coli of "MVWSATSRTKYSIKKSFFGCSMIELSNVNLHYPVPGHFSHSLQTTISSKIGGVLGSSSAKDKEMKYVHALRDINLKLEDSSRLGIIGHNGAGKTTLLRLLSQVYPPTSGKVTIEGKISALTDFTLGMDPNATGLKNIEFRLVFMGCTFKEAQQAVEEIVAFSELGEFINLPVRTYSTGMFLRLAFAISTHFTPDILILDEVIGAGDETFREKALSRLESLIKKSRMVVLSSHDLNAIKQYCDQAIVMEKGEIVFNGTPQSCIDYYLNSVKK" , please.
(A) not soluble
